// compounds with reported IC50 on GST-Xa-hAAK1 (Homo sapiens (Human)), multi-publication
Sequence (Q2M2I8 whole entry): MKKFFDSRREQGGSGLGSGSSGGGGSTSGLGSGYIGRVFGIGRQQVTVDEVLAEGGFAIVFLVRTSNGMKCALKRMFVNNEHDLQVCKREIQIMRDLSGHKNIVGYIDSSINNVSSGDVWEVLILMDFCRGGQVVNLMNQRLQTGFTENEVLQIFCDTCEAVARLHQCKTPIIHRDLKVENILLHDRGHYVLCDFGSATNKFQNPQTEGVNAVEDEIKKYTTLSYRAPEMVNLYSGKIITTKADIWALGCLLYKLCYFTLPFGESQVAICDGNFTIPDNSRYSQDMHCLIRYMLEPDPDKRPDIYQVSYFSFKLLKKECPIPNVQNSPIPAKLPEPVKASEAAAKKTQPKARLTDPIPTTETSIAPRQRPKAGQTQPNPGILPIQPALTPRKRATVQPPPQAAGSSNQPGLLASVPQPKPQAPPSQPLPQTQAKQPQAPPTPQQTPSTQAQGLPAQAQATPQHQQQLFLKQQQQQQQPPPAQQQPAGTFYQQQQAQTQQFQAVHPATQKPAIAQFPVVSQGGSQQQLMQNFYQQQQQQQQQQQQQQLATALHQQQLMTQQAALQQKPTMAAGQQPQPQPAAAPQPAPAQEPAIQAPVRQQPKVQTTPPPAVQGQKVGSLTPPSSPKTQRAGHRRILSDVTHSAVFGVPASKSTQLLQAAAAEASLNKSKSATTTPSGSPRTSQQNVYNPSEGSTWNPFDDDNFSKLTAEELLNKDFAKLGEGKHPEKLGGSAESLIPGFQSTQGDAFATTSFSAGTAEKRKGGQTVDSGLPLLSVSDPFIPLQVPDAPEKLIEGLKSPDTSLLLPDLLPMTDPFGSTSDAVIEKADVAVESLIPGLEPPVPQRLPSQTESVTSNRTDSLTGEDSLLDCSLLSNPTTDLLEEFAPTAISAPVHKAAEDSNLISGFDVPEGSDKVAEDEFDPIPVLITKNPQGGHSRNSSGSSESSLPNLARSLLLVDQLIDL
PROPERTY_LABEL: IC50 (nM)

Known IC50 results, listed for orientation:
1. CC(C)C[C@](C)(N)COc1ccc2c(c1)COc1cnc(N)cc1-2    4.4
2. CC(C)C[C@](C)(N)COc1ccc(-c2cc(N)ncn2)cc1C(F)(F)F    1.9
3. COC(=O)Nc1cc(-c2cc(C)c(OC[C@@](C)(N)CC(C)C)cn2)ccn1    2.6
4. CC(C)C[C@](C)(N)COc1ccc(-c2ccnc(F)c2)cc1C#N    4.7

1: Cc1cc2c3ccc(OC[C@@](C)(N)CC(C)C)cc3c(=O)n(C)c2cn1
2: Cc1nccc(-c2ccc(OC[C@](C)(N)CC(C)C)c(C)n2)n1
3: CC(C)C[C@](C)(N)COc1ccc(-c2cc(Cl)ncn2)cc1C(F)(F)F
Order each entry by recorded IC50, climbing from the minimum. In your reply, arrange the labels in the requested order.
1, 3, 2

a: COC(=O)Nc1cc2c(cn1)OCc1cc(OCC(C)(N)CC(C)C)ccc1-2 (stereo not drawn)
b: COC(=O)Nc1nccc(-c2cnc(OC[C@](C)(N)CC(C)C)c(Cl)c2)n1
Of a and b , which one carries the higher reported IC50? Write down the label of the entry you select.
b
(b: 298 nM, a: 8.1 nM)
